Tested on: Escherichia coli TOP10
Assay: shrunken log2 fold change of peptide-encoding DNA abundance (4.5 h post-induction vs induction); higher = less antimicrobial activity (less host growth inhibition)
Settings: time post-induction: 4.5 h; library: site-saturation at positions 5, 18, 19, 20
Everything with shrunken log2 fold change lower than -0.06 is N; everything else, including exactly -0.06, is Y.

Below are worked cases with known answers.
| SEQUENCE CHAIN | CATEGORY LABEL |
| --- | --- |
| RRIRMRPPRLPRPRPRPFHLPRP | Y |
| RRIRDRPPRLPRPRPRPSNRPRP | Y |
| RRIRIRPPRLPRPRPRPQSWPRP | N |

Tell me whether shrunken log2 fold change is at least -0.06 here: RRIRMRPPRLPRPRPRPYTEPRP
N

Given RRIRPRPPRLPRPRPRPYVPPRP , state whether its shrunken log2 fold change is at least -0.06.
N

I'd appreciate it if you could say whether RRIRARPPRLPRPRPRPEMPPRP has shrunken log2 fold change at least equal to -0.06.
Y

Determine whether this sequence has shrunken log2 fold change no lower than -0.06: RRIRMRPPRLPRPRPRPMAPPRP
Y

Does RRIRDRPPRLPRPRPRPYTRPRP have a reported shrunken log2 fold change of at least -0.06?
N

Hi team, for RRIRQRPPRLPRPRPRPIVSPRP , is the recorded shrunken log2 fold change at or above -0.06?
Y

###

System: Escherichia coli TOP10
Test: shrunken log2 fold change of peptide-encoding DNA abundance (4.5 h post-induction vs induction); higher = less antimicrobial activity (less host growth inhibition)
Conditions: time post-induction: 4.5 h; library: site-saturation at positions 5, 18, 19, 20
ASSAY ENDPOINT: shrunken log2 fold change
Number, no unit, nothing else.

Known shrunken log2 fold change results, listed for orientation:
| SEQUENCE CHAIN | STUDY TARGET | REPORTED |
| --- | --- | --- |
| RRIRRRPPRLPRPRPRPRDMPRP | Escherichia coli TOP10 | 0.186 |
| RRIRCRPPRLPRPRPRPPQAPRP | Escherichia coli TOP10 | 0.735 |
| RRIRCRPPRLPRPRPRPRRNPRP | Escherichia coli TOP10 | -0.0367 |
| RRIRNRPPRLPRPRPRPVRRPRP | Escherichia coli TOP10 | 0.112 |
| RRIRCRPPRLPRPRPRPNNGPRP | Escherichia coli TOP10 | -0.451 |

Look up shrunken log2 fold change for this sequence: RRIRVRPPRLPRPRPRPCRHPRP
0.0429

Param item = RRIRMRPPRLPRPRPRPKIIPRP ; retrieve measured shrunken log2 fold change.
0.102

Looking for the measured shrunken log2 fold change of RRIRIRPPRLPRPRPRPHMGPRP , can you help?
-1.08

Please give the measured shrunken log2 fold change for this sequence: RRIRLRPPRLPRPRPRPDLEPRP
0.0992

Using the record for RRIRRRPPRLPRPRPRPQLAPRP , report its shrunken log2 fold change.
-0.0216

Which shrunken log2 fold change is reported for this sequence? RRIRPRPPRLPRPRPRPKGDPRP
0.022

Can you look up the measured shrunken log2 fold change of RRIRTRPPRLPRPRPRPFALPRP for me?
-0.0597

Requested field: shrunken log2 fold change. Item: RRIRIRPPRLPRPRPRPAGTPRP
-0.108

What value of shrunken log2 fold change has been recorded for this entry: RRIRRRPPRLPRPRPRPTTNPRP
0.338

What value of shrunken log2 fold change has been reported for the following sequence? RRIRIRPPRLPRPRPRPSWPPRP
-0.227

###

Test system: Escherichia coli TOP10
Experiment: shrunken log2 fold change of peptide-encoding DNA abundance (4.5 h post-induction vs induction); higher = less antimicrobial activity (less host growth inhibition)
Conditions: time post-induction: 4.5 h; library: site-saturation at positions 5, 18, 19, 20
Listed below: shrunken log2 fold change values for each entry.

| SEQUENCE CHAIN | REPORTED |
| --- | --- |
| RRIRVRPPRLPRPRPRPAAMPRP | 0.347 |
| RRIRVRPPRLPRPRPRPAPKPRP | 0.438 |
| RRIRYRPPRLPRPRPRPWVHPRP | -0.701 |
| RRIRMRPPRLPRPRPRPTEIPRP | -0.0223 |
| RRIRCRPPRLPRPRPRPTGKPRP | 0.355 |
| RRIRPRPPRLPRPRPRPGFSPRP | -0.0307 |
| RRIRIRPPRLPRPRPRPDCLPRP | 0.0966 |

Could you now consider this next sequence?
Query the reported shrunken log2 fold change for Escherichia coli TOP10; item: RRIRCRPPRLPRPRPRPFDTPRP
-0.192

###

Tested on: Escherichia coli TOP10
Assay: shrunken log2 fold change of peptide-encoding DNA abundance (4.5 h post-induction vs induction); higher = less antimicrobial activity (less host growth inhibition)
Conditions: time post-induction: 4.5 h; library: site-saturation at positions 5, 18, 19, 20
Below: a set of entries, each annotated with reported shrunken log2 fold change.
Answer field: number only, no words.

| SEQUENCE CHAIN | REPORTED |
| --- | --- |
| RRIRSRPPRLPRPRPRPLVTPRP | 0.0214 |
| RRIRKRPPRLPRPRPRPVVWPRP | 0.602 |
| RRIRKRPPRLPRPRPRPPCLPRP | 0.123 |
| RRIRYRPPRLPRPRPRPTAEPRP | 0.0226 |
| RRIRTRPPRLPRPRPRPDKFPRP | 0.116 |
| RRIRDRPPRLPRPRPRPFVRPRP | -0.234 |
| RRIRKRPPRLPRPRPRPWDRPRP | 0.394 |

Now, please, on to the next sequence.
Consider the sequence shown here: RRIRFRPPRLPRPRPRPNDGPRP What is its recorded shrunken log2 fold change?
-0.222

###

Tested on: Escherichia coli TOP10
Assay: shrunken log2 fold change of peptide-encoding DNA abundance (4.5 h post-induction vs induction); higher = less antimicrobial activity (less host growth inhibition)
Details: time post-induction: 4.5 h; library: site-saturation at positions 5, 18, 19, 20
ASSAY ENDPOINT: shrunken log2 fold change
Just the number, please.

| SEQUENCE CHAIN | shrunken log2 fold change |
| --- | --- |
| RRIRARPPRLPRPRPRPSPSPRP | 0.52 |
| RRIRTRPPRLPRPRPRPMACPRP | 0.0855 |
| RRIRERPPRLPRPRPRPYNWPRP | -0.276 |
| RRIRERPPRLPRPRPRPIPWPRP | -0.345 |

Fill in: shrunken log2 fold change of RRIRVRPPRLPRPRPRPLERPRP is ___
-0.0607

Using the record for RRIRIRPPRLPRPRPRPIQPPRP , report its shrunken log2 fold change.
-0.044

Consider the sequence shown here: RRIRARPPRLPRPRPRPTAFPRP What is its recorded shrunken log2 fold change?
0.815

Any idea what shrunken log2 fold change was measured for RRIRDRPPRLPRPRPRPEADPRP ?
1.93

Please look up its shrunken log2 fold change: RRIRFRPPRLPRPRPRPAAYPRP
-0.341

Which shrunken log2 fold change value belongs to RRIRRRPPRLPRPRPRPMRMPRP ?
0.119

shrunken log2 fold change for RRIRIRPPRLPRPRPRPMLAPRP ?
0.0524

So what does the record say about shrunken log2 fold change for RRIRCRPPRLPRPRPRPCNYPRP ?
-1.4

###

Listed next: entries and their corresponding shrunken log2 fold change.
System: Escherichia coli TOP10;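 note: peptides expressed intracellularly from a pBAD plasmid library in pooled LB shake-flask culture, induced with 0.3% L-arabinose, DNA abundance read by NGS, three biological replicates, DESeq2 with apeglm shrinkage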
Experiment: shrunken log2 fold change of peptide-encoding DNA abundance (4.5 h post-induction vs induction); higher = less antimicrobial activity (less host growth inhibition)
Conditions: time post-induction: 4.5 h; library: site-saturation at positions 5, 18, 19, 20
Just the number.

Examples with answers:
| SEQUENCE CHAIN | STUDY TARGET | shrunken log2 fold change |
| --- | --- | --- |
| RRIRSRPPRLPRPRPRPDMTPRP | Escherichia coli TOP10 | 0.154 |
| RRIRVRPPRLPRPRPRPLWDPRP | Escherichia coli TOP10 | 0.00404 |
| RRIRPRPPRLPRPRPRPHFAPRP | Escherichia coli TOP10 | 0.284 |
| RRIRYRPPRLPRPRPRPHWIPRP | Escherichia coli TOP10 | -0.398 |
| RRIRSRPPRLPRPRPRPASIPRP | Escherichia coli TOP10 | 7.54e-05 |

Query: shrunken log2 fold change; subject: RRIRLRPPRLPRPRPRPCSSPRP
-0.157

Need shrunken log2 fold change, item RRIRWRPPRLPRPRPRPRHIPRP
-0.0148

Bench note: what shrunken log2 fold change did RRIRGRPPRLPRPRPRPITEPRP show?
0.000184

Name the reported shrunken log2 fold change value associated with the sequence RRIRRRPPRLPRPRPRPYIRPRP
-0.715

# query: shrunken log2 fold change of entry RRIRRRPPRLPRPRPRPNRHPRP
-0.00811

Which shrunken log2 fold change value is on record for RRIRARPPRLPRPRPRPRHTPRP ?
0.419

Look at this sequence and give its reported shrunken log2 fold change. RRIRRRPPRLPRPRPRPKEWPRP
0.044
